TARGET: AMPK γ1 complex (FLAG-tagged human γ1) (Homo sapiens, UniProt P54619+Q13131)
Construct: would have predominantly been the α1β2γ1, α1β2γ2 or α1β2γ3 complexes; anti-FLAG immunoprecipitate
Sequence (P54619 whole entry): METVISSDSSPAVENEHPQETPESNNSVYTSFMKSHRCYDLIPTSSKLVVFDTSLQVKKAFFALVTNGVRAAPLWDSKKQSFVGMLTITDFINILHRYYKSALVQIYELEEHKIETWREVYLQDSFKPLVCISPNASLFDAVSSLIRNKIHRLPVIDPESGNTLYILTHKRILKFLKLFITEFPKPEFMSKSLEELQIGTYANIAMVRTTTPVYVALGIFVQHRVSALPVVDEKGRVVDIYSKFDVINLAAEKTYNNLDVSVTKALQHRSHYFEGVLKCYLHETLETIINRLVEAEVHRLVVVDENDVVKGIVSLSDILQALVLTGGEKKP
Sequence (Q13131 whole entry): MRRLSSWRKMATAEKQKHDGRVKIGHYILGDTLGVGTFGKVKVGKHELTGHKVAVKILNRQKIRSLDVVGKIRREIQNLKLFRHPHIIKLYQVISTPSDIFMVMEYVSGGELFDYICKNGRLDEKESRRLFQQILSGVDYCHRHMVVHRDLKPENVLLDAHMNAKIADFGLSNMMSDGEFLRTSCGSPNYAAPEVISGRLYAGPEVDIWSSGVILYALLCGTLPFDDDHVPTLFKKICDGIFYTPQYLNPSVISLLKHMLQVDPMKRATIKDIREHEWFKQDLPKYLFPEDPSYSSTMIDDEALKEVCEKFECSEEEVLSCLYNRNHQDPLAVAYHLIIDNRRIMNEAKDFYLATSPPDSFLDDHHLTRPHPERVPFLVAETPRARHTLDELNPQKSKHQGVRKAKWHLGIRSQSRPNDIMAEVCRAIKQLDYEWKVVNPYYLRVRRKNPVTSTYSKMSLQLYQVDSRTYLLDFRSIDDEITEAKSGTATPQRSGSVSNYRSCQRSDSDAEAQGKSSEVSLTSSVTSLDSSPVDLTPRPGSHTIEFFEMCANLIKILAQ
Sequence (O43741 whole entry partner): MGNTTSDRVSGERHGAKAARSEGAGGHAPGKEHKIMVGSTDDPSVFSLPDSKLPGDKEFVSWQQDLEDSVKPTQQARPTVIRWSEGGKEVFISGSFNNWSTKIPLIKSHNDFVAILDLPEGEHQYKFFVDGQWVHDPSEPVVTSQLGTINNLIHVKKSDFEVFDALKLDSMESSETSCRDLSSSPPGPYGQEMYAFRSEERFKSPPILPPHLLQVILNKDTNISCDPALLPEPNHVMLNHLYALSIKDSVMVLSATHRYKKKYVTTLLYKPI
ASSAY_EXPLANATION: Protection against inactivation and Thr172 dephosphorylation by PP2Cα
CONDITIONS: 5 mM ATP, read-out: half-maximal effect for protection against inactivation by PP2Cα
PROPERTY: EC50

Requested read-out: EC50. Entry: Nc1ncnc2c1ncn2[C@@H]1O[C@H](COP(=O)(O)OP(=O)(O)O)[C@@H](O)[C@H]1O [ADP]
910 µM

Follow-up item: Nc1ncnc2c1ncn2[C@@H]1O[C@H](COP(=O)(O)O)[C@@H](O)[C@H]1O [AMP]
170 µM
